molecular target: GABA-A receptor; alpha-3/beta-3/gamma-2 (Homo sapiens, UniProt P18507+P28472+P34903); test: Binding affinity for human GABA-A receptor alpha-3-beta-3-gamma-2 subunits in L(tk-) cells
Sequence (P18507 whole entry): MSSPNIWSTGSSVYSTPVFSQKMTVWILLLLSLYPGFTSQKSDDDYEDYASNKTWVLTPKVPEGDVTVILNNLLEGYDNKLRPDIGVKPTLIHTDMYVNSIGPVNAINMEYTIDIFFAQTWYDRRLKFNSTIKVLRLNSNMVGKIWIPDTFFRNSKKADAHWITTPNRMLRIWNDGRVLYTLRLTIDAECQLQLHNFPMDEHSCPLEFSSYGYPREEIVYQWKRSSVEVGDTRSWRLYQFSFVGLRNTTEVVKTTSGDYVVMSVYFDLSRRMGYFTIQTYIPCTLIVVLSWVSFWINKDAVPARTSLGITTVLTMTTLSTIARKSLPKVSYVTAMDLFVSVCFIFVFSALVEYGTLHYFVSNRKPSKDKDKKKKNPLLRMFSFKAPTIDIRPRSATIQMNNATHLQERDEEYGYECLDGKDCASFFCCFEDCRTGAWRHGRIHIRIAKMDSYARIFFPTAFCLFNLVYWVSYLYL
Sequence (P28472 whole entry): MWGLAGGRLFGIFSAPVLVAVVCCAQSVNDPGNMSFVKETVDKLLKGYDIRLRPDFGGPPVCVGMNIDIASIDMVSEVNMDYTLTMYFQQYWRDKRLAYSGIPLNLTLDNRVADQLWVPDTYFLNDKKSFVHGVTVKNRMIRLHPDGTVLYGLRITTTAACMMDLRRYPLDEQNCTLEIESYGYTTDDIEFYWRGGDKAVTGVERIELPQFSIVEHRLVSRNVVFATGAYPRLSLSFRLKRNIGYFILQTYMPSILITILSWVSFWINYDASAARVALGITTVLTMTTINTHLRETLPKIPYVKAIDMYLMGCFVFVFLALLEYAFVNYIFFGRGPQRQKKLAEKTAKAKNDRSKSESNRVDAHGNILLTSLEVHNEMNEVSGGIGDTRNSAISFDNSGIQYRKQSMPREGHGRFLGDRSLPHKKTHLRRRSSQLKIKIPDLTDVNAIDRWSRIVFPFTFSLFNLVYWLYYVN
Sequence (P34903 whole entry): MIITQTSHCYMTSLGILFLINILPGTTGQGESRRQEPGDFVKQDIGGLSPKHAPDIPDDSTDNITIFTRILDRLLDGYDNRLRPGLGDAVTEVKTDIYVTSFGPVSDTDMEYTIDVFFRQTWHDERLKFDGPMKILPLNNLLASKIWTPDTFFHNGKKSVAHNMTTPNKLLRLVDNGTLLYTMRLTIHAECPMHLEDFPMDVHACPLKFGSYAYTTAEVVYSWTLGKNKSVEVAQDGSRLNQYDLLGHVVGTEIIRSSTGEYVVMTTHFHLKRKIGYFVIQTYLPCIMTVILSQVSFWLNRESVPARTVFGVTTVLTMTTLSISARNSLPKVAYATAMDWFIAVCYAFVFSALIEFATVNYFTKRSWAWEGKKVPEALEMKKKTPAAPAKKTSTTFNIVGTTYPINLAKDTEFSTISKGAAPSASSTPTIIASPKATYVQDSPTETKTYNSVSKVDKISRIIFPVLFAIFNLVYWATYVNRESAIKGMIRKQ
Parameter Ki: see the listing below.
Field format: number, assumed nM, no unit text.

Guide cases for Ki, answers given:
COc1cccc(COc2nn3c(-c4ccccc4)nnc3c3ccccc23)c1    66
c1ccc(-c2nnc3c4ccccc4c(OCc4cccnn4)nn23)cc1    0.37
COc1ccc(-c2nnc3c4ccccc4c(OCc4ccccc4)nn23)cc1    170

Query molecule follows.
Suppose we examine the molecule c1ccc(-c2nnc3c4ccccc4c(OCCc4ccccn4)nn23)cc1 ; what Ki value has been reported?
17
